# Tested on: MOLT-4 leukemia
# Experimental details: NCI-60 one-dose screen, 48 h (100 = growth as untreated, 0 = no growth, -100 = all killed)
# Measurement setup: 10 µM unless noted
About 83,000 compounds went through this panel and 20% of them were active in at least one assay; those are over-represented in the sample as a whole.
Property label: growth (%)
Write the value in % as a bare number.

Molecule: CCCCCN1CCN(C(CC(=O)c2ccccc2)C(=O)c2ccccc2)CC1 (stereo not given)
Reported: 27.9
//
Molecule: NCCCOc1cc2ccccc2cc1C(=O)Nc1ccc(Cl)cc1OC(=O)c1cc2ccccc2cc1OCCCN
Reported: -17
//
Molecule: CCN(CC)CCNc1ncnc2c1cnn2-c1ccc(Cl)cc1
Reported: 92.9
//
Molecule: CCCCCCCCCCCCOC(=N)N(C)C
Reported: 93.5

Could you please provide reported growth for "COc1cc2ncnc(-n3ncc4cc(NC(=O)Nc5ccc(Cl)c(Cl)c5)ccc43)c2cc1OC" ? Thanks!
9.19
